Catalogue of percent inhibition of Factor 7 mRNA, relative to untreated control cells readings, one per entry.
# System: human Factor 7 mRNA
# Assay summary: Dose-dependent antisense inhibition of human Factor 7 in HepB3 cells, transfection with electroporation
# Assay type: cell-based
# Recorded conditions: 12.5 μM, 16 hours (Example 7, Table 15)
In the oligonucleotide strings, read from the 5' end, every base follows the letter of its sugar. An asterisk marks phosphorothioate; unmarked linkages are phosphodiester. Other units and linkages are bracketed, terminal groups are in braces. A string of capitals states the bases alone. e = 2'-O-(2-methoxyethyl) (MOE); [5mC] = 5-methylcytosine; d = 2'-deoxy (DNA)
Provide only the numeric value, understood in %.

# example entries with known answers
Substance	Target entity	Measured
422252 (antisense e[5mC]*eG*d[5mC]*d[5mC]*dG*dG*d[5mC]*dT*d[5mC]*dT*dG*d[5mC]*dT*d[5mC]*dA*eT*e[5mC]*e[5mC]*e[5mC]*e[5mC]) [compound 422252]	human Factor 7 mRNA	26
422177 (antisense e[5mC]*e[5mC]*e[5mC]*dG*d[5mC]*d[5mC]*dG*dG*d[5mC]*dT*d[5mC]*dT*dG*d[5mC]*dT*d[5mC]*dA*eT*e[5mC]*e[5mC]) [compound 422177]	human Factor 7 mRNA	29
422292 (antisense eG*eT*dT*d[5mC]*dT*dG*d[5mC]*dA*dG*dG*dA*dG*d[5mC]*dG*dG*e[5mC]*e[5mC]*eT*eA*eA) [compound 422292]	human Factor 7 mRNA	47
422087 (antisense e[5mC]*eA*eT*eG*e[5mC]*dA*dT*dG*dG*dT*dG*dA*dT*dG*d[5mC]*eT*eT*e[5mC]*eT*eG) [compound 422087]	human Factor 7 mRNA	48

We now examine a further substance.
Form: substance = 422296 (antisense e[5mC]*e[5mC]*dG*dA*dG*dT*dT*d[5mC]*dT*dG*d[5mC]*dA*dG*dG*dA*eG*e[5mC]*eG*eG*e[5mC]) [compound 422296] ; percent inhibition of Factor 7 mRNA, relative to untreated control cells = 56
